FYI, the data here is from patent US20260265238A1.

system-under-test: SMARCA4-HiBiT HeLa cells (protein which is expressed from the SMARCA4 gene) (Homo sapiens, UniProt P51532)
Construct: protein which is expressed from the SMARCA2 and SMARCA4 genes; host or cells: HeLa (SMARCA4-HiBiT engineered line)
Sequence (P51532 whole entry): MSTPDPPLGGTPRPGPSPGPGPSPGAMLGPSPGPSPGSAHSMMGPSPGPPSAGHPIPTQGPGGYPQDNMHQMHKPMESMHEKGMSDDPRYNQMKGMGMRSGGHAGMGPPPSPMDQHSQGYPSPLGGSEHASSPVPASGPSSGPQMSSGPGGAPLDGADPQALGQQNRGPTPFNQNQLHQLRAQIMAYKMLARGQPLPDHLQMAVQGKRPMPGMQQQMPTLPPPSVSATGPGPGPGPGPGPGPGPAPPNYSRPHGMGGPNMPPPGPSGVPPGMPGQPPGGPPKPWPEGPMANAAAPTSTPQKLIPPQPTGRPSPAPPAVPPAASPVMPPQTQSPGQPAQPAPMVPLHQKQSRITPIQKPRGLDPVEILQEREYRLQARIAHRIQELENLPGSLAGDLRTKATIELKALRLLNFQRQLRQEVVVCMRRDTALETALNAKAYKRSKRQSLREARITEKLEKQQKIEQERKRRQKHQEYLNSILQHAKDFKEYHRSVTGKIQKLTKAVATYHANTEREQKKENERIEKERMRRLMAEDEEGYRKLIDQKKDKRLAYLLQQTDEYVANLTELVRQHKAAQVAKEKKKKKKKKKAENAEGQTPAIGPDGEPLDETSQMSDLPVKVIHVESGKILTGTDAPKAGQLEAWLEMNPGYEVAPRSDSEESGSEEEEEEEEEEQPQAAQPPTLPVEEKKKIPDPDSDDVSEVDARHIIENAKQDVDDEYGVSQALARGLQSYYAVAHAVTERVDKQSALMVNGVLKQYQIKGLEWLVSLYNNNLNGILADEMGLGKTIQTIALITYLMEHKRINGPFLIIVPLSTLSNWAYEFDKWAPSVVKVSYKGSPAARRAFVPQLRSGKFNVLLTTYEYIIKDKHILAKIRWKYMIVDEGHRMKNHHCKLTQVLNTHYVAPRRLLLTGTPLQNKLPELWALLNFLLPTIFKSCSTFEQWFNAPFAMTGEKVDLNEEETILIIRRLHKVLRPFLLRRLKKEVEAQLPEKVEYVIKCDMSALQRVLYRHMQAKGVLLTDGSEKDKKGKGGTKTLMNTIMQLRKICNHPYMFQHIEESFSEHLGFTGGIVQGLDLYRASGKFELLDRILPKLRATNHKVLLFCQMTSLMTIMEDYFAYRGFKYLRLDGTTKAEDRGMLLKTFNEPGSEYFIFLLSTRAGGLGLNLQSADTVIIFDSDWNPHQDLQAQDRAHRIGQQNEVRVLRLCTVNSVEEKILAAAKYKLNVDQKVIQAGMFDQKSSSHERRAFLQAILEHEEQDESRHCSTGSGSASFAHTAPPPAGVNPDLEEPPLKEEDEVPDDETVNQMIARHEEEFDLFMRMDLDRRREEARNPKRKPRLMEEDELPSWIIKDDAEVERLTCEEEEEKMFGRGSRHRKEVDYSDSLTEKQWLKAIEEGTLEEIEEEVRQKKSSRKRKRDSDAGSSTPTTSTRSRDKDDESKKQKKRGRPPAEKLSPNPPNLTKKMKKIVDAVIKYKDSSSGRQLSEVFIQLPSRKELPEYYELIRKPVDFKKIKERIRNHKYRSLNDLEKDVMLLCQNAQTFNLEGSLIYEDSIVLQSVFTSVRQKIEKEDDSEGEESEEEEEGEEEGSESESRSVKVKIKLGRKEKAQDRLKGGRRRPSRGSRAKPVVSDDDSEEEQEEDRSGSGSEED
run-description: SMARCA4 degradation assay (HiBiT-fusion HeLa cell line, 24 h, luminescence)
Assay type: cell-based
readout-type: DC50

What DC50 value was documented for this molecule, C[C@@H]1CCN(c2cc(-c3ccccc3O)nnc2N)CCN1c1ccnc(C#CCO)c1 [Compound P-397] ?
500 to 5000 nM

====

system-under-test: SMARCA4-HiBiT HeLa cells (protein which is expressed from the SMARCA4 gene) (Homo sapiens)
Construct: protein which is expressed from the SMARCA2 and SMARCA4 genes; host or cells: HeLa (SMARCA4-HiBiT engineered line)
run-description: SMARCA4 degradation assay (HiBiT-fusion HeLa cell line, 24 h, luminescence)
Type: cell-based
Quick list: DC50 per entry.

Here's what some known entries look like.
>>> df
                                   molecule  readout_type        result
0  Nc1nnc(-c2ccccc2O)cc1N1CCCN(c2ccnc(C#CCN[C@@H]3CCOC3)n2)CC1 [Compound P-273]          DC50  50 to 500 nM
1  Nc1nnc(-c2ccccc2O)cc1N1CCCC2(CCN(c3ccnc(C#CCNC(=O)c4cc5ncccn5n4)n3)CC2)C1 [Compound P-33]          DC50  50 to 500 nM
2  C[C@@H]1CCN(c2cc(-c3ccccc3O)nnc2N)CCN1c1ccc(C#N)c(C#CCN2CCC(F)(F)CC2)n1 [Compound P-416]          DC50  50 to 500 nM

Which measured DC50 value corresponds to CC(C)NC(=O)NCC#Cc1nccc(N2CCCN(c3cc(-c4ccccc4O)nnc3N)CC2)n1 [Compound P-327] ?
500 to 5000 nM

Another molecule to check: Oc1ccccc1-c1cc(N2CC3CCC(C2)N3c2ccnc(C#CCN3CCCCC3)n2)cnn1 [Compound P-369]
500 to 5000 nM

What about this molecule? CC(C)(C)OC(=O)N1CCN(CC#Cc2nccc(N3CCCN(c4cc(-c5ccccc5O)nnc4N)CC3)n2)CC1 [Compound P-143]
50 to 500 nM

Also check C[C@@H]1CCN(c2cc(-c3ccccc3O)nnc2N)CCN1c1ccnc(/C=C/CO)n1 [Compound P-168]
50 to 500 nM
